pIC50: −log10 of the molar value.
For reference, the following pIC50 results for Cyclin-dependent kinase 3 (Homo sapiens) were taken from various sources.
observable: pIC50

compound.smiles: COc1ccc(/C=C\c2cc(OC)c(OC)c(OC)c2)cc1NC(=O)CCC(=O)N[C@@H](CCCNC(=N)N)C(=O)O
target: Cyclin-dependent kinase 3 (Homo sapiens)
measured.value: < 5.00
//
compound.smiles: Nc1nc(Nc2ccc(S(N)(=O)=O)cc2)nn1C(=O)c1c(F)cccc1F
target: Cyclin-dependent kinase 3 (Homo sapiens)
measured.value: 7.24
//
compound.smiles: CCCc1cc(N[C@@H]2CC[C@@H](N)C2)n2nccc2n1
target: Cyclin-dependent kinase 3 (Homo sapiens)
measured.value: < 5.92
//
compound.smiles: C[C@H](O)CNc1cc(-c2[nH]c3cccnc3c2-c2ccc(F)cc2)ccn1
target: Cyclin-dependent kinase 3 (Homo sapiens)
measured.value: < 4.60
